// provenance: ChEMBL document CHEMBL1926574

UniProtKB P29274 measurements of Ki, listed per entry.
Sequence (P29274 whole entry): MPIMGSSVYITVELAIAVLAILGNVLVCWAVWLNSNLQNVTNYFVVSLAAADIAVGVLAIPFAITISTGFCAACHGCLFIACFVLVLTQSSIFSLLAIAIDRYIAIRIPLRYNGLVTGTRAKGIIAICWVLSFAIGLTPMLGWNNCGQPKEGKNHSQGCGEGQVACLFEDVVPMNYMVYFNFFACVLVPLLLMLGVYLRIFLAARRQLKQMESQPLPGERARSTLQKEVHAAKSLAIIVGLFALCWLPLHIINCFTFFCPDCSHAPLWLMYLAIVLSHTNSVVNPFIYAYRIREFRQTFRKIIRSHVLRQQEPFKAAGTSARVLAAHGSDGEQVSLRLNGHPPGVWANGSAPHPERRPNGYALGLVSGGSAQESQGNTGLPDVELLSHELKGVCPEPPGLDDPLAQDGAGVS
# unit: nM | format: bare number

Example entries and their recorded answers appear below.
molecule | target_of_assay | recorded_value
Nc1nc(O)nc2nc(-c3ccco3)nn12 | UniProtKB P29274 | 201
CC(C)(C)OC(=O)NCCNc1nc(NCCNC(=O)OC(C)(C)C)n2nc(-c3ccco3)nc2n1 | UniProtKB P29274 | 4360
CC(C)(C)OC(=O)N1CCN(c2nc(N)n3nc(-c4ccco4)nc3n2)CC1 | UniProtKB P29274 | 21
CC(C)(C)OC(=O)NCCOCCOCCNc1nc(N)n2nc(-c3ccco3)nc2n1 | UniProtKB P29274 | 17.8
Nc1nc(N2CCCC2)nc2nc(-c3ccco3)nn12 | UniProtKB P29274 | 59.1

API: value(readout= Ki, system= UniProtKB P29274, query= `CC(C)(C)CC(=O)N1CCN(c2nc(N)n3nc(-c4ccco4)nc3n2)CC1` )
11.1
